System: Sam68 (KHDRBS1)
ASSAY_EXPLANATION: Sam68 small-molecule binders, primary screen, biochemical, small-molecule microarray, 635 nm fluorescence (AID 1125);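 note: score merges 667 nm channel intensity with signal to noise over triplicate slides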
MEASUREMENT_SETUP: small-molecule microarray binding, higher = more signal
Everything with composite z-score lower than 1 is -1; everything else, including exactly 1, is 1.

Lookup: Hi team, for CC(=O)NCCCC[C@@H]1NC(=O)[C@@H]2C[C@H](C(=O)NCc3ccc(F)cc3)[C@H](c3cccc(OCCO)c3)N2C1=O , is the recorded composite z-score at or above 1?
Found: -1

Lookup: Hi team, for COc1cc2c(cc1OC)CN(C(=O)[C@H]1[C@@H]3C(=O)O[C@@H](c4ccccc4)[C@@H](c4ccccc4)N3[C@@H](c3ccc(O)cc3)[C@]13C(=O)Nc1ccc(C#CC4(O)CCCCCC4)cc13)CC2 , is the recorded composite z-score at or above 1?
Found: 1

Lookup: Hi team, for COC(=O)C1=CC(c2ccc(CO)cc2)=CC(C2CC2)N(Cc2sc3ccccc3c2Cl)C=C1C(=O)OC (centres undefined) , is the recorded composite z-score at or above 1?
Found: 1

Lookup: Hi team, for O=C(N1CCCCC1)[C@@]1(CCS(=O)(=O)c2ccccc2)N=C(c2ccc(OCCCO)cc2)O[C@H]1c1ccccc1 , is the recorded composite z-score at or above 1?
Found: 1

Lookup: Hi team, for C=CCOC(=O)[C@@H]1[C@H]2C(=O)O[C@H](c3ccccc3)[C@H](c3ccccc3)N2[C@H](c2ccc(OCCOC(=O)[C@H]3C[C@H]4C(=O)N5CCC[C@H]5C(=O)N4[C@H]3c3ccc(O)cc3)cc2)[C@@]12C(=O)Nc1ccccc12 , is the recorded composite z-score at or above 1?
Found: 1

Lookup: Hi team, for Cc1ccc(S[C@]2(C(=O)NCCCN(C)C)CC(=O)N(C3CCCCC3)[C@@H]2c2ccc(CO)cc2I)cc1 , is the recorded composite z-score at or above 1?
Found: -1

Lookup: Hi team, for O=C1C2C=CC(C(O)C#Cc3ccccc3)N(Nc3ccccc3)C2C(=O)N1c1ccccc1 (centres undefined) , is the recorded composite z-score at or above 1?
Found: -1

Lookup: Hi team, for C=C(CCCC)C(=O)CC[C@@H](OC(C)=O)c1ccccc1OCCO , is the recorded composite z-score at or above 1?
Found: -1

Lookup: Hi team, for COC(=O)[C@@]1(Cc2ccccc2CN=[N+]=[N-])N=C(c2ccc(OCCCO)cc2)O[C@H]1c1ccccc1N=[N+]=[N-] , is the recorded composite z-score at or above 1?
Found: -1

Lookup: Hi team, for C#CCCCON=C1C[C@@H](O)[C@@H](O)[C@@H]2[C@@H]3C(=O)N(Cc4ccc5c(c4)OCO5)C(=O)[C@@H]3CC[C@H]12 , is the recorded composite z-score at or above 1?
Found: 1

Lookup: Hi team, for C#CCNC(/C=C/c1ccccc1)CO (centres undefined) , is the recorded composite z-score at or above 1?
Found: -1

Lookup: Hi team, for C=C[C@H](OC)[C@@H](OC(=O)Nc1ccc(SC)cc1)c1ccc(O)c(F)c1 , is the recorded composite z-score at or above 1?
Found: 1

Lookup: Hi team, for C=CC(=O)O[C@@H](Cc1ccccc1)[C@H]1C2C=CCCC=C2CN1Cc1cccc(Cl)c1 (some centres undefined) , is the recorded composite z-score at or above 1?
Found: -1

Lookup: Hi team, for CO[C@H]1COC(=O)[C@@H](Cc2ccccc2)NC(=O)[C@@H](C)COC(=O)CC=C[C@@H]1C , is the recorded composite z-score at or above 1?
Found: -1

Lookup: Hi team, for [N-]=[N+]=NCc1ccccc1C[C@]1(C(N)=O)N=C(c2ccc(OCCCO)cc2)O[C@H]1c1ccccc1CN=[N+]=[N-] , is the recorded composite z-score at or above 1?
Found: 1

Lookup: Hi team, for CO[C@H]1O[C@H](CO)[C@@H](OC(=O)Nc2ccc3c(c2)OCO3)[C@H](OC(=O)Nc2ccccc2)[C@@H]1OC(=O)Nc1ccccc1 , is the recorded composite z-score at or above 1?
Found: 1

Lookup: Hi team, for CC(C)[Si]1(C(C)C)O[C@@H](c2ccccc2)c2cc(C3CC3)nc(-c3ccc(Oc4ccccc4)cc3)c21 , is the recorded composite z-score at or above 1?
Found: -1

Lookup: Hi team, for CCC#CCN(Cc1ccccc1Br)[C@H](/C=C/c1ccccc1)[C@@H](O)Cc1ccccc1 , is the recorded composite z-score at or above 1?
Found: -1

Lookup: Hi team, for CN1CCC(CCCO)=CC1C1CC1 (centres undefined) , is the recorded composite z-score at or above 1?
Found: -1

Lookup: Hi team, for O=C1O[C@@H](c2ccccc2)[C@@H](c2ccccc2)N2[C@@H](c3ccccc3OCCO)[C@]3(C(=O)Nc4ccc(C#CC5=CCCCC5)cc43)[C@@H](C(=O)O)[C@H]12 , is the recorded composite z-score at or above 1?
Found: 1

Lookup: Hi team, for COC(=O)[C@@]1(Cc2ccccc2)[C@H]2c3cc(C(=O)N4CCCC4)n(CCN4CNCC4=O)c3C[C@H]2CN1C(=O)c1ccccc1 , is the recorded composite z-score at or above 1?
Found: -1

Lookup: Hi team, for C[C@@H]1NC(=O)[C@H](Cc2ccccc2)NC(=O)[C@@]23C(=O)N[C@@H](Cc4ccccc4)C2[C@H](C)[C@@]2(C)O[C@H]2C3/C=C/C/C=C\CNC1=O (some centres undefined) , is the recorded composite z-score at or above 1?
Found: -1

Lookup: Hi team, for [N-]=[N+]=NCc1ccccc1C[C@@]1(C(=O)N2CCOCC2)N=C(c2ccc(OCCCO)cc2)O[C@@H]1c1ccccc1N=[N+]=[N-] , is the recorded composite z-score at or above 1?
Found: 1

Lookup: Hi team, for CO[C@@H]1COC(=O)[C@@H]2CCCN2C(=O)CC=C[C@@H](C)[C@H](OC)COC(=O)[C@@H]2CCCN2C(=O)CC=C[C@H]1C , is the recorded composite z-score at or above 1?
Found: -1

Lookup: Hi team, for CCCC[C@@H]1C[C@H]1[C@@H](NC(=O)c1cccs1)c1ccc(Cl)cc1 , is the recorded composite z-score at or above 1?
Found: -1

Lookup: Hi team, for CCCC=C(CCC)[C@@H](NS(=O)(=O)c1ccc(-c2ccccc2)cc1)c1ccc(C(=O)OC)cc1 , is the recorded composite z-score at or above 1?
Found: -1

Lookup: Hi team, for CN(C)C(=O)[C@@]1(Cc2ccccc2N=[N+]=[N-])N=C(c2ccc(OCCCO)cc2)O[C@H]1c1ccccc1CN=[N+]=[N-] , is the recorded composite z-score at or above 1?
Found: 1

Lookup: Hi team, for C[C@@H]1NC(=O)CC=C[C@@H](C)[C@@H]2C=C[C@H](O)[C@@H](COC(=O)[C@H](C)NC(=O)CC=C[C@@H](C)[C@@H]3C=C[C@H](O)[C@@H](COC1=O)O3)O2 , is the recorded composite z-score at or above 1?
Found: -1

Lookup: Hi team, for O=C1C2C=CC(C(O)C(c3ccccc3)c3ccccc3)N(Nc3ccc([N+](=O)[O-])cc3)C2C(=O)N1c1ccccc1 (centres undefined) , is the recorded composite z-score at or above 1?
Found: 1

----------
ASSAY_EXPLANATION: basal RPMI8226 mitochondrial membrane potential changes, profiling panel, cell-based, JC-1 fluorescence, 24 h, 100 nL compound (AID 1169); note: test concentration not given here
MEASUREMENT_SETUP: RPMI8226 myeloma, JC-1 mitochondrial potential fluorescence, higher = more signal
For each of the compounds below, state its z-score.
Give your answer as a number; write no unit.

Lookup: Given C#CCCCON=C1C[C@@H](O)[C@@H](O)[C@@H]2[C@@H]3C(=O)N(Cc4ccc5c(c4)OCO5)C(=O)[C@@H]3CC[C@H]12 , state its recorded z-score.
Found: -0.427

Lookup: Given COC(=O)C(CC#Cc1ccc2c(c1)[C@]1(C(=O)N2)[C@H](C(=O)N2CCCCCCC2)[C@H]2C(=O)O[C@H](c3ccccc3)[C@H](c3ccccc3)N2[C@@H]1c1ccc(O)cc1)C(=O)OC , state its recorded z-score.
Found: 0.145

Lookup: Given O=C1c2ccccc2[C@@]2(Cc3ccccc3N(CC(F)(F)F)C2=O)[C@H](c2ccc(CO)cc2)N1C1CCCCC1 , state its recorded z-score.
Found: 1.06

Lookup: Given C=CCNC(=O)[C@@H]1[C@H]2C(=O)O[C@H](c3ccccc3)[C@H](c3ccccc3)N2[C@H](c2ccc(OCCO)cc2)[C@@]12C(=O)N(C(=O)OCCOC)c1ccc(C#CC3(O)CCCCCC3)cc12 , state its recorded z-score.
Found: -0.814

Lookup: Given COc1ccc([Si](C)(C)[C@H]2[C@H](CCO)O[C@@]3(C(=O)N(Cc4ccccc4)c4ccc(N5C(=O)c6cccc7cccc5c67)cc43)[C@@H]2C)cc1 , state its recorded z-score.
Found: -0.815

Lookup: Given O=C1NC(=O)C2C1C=CC(C(O)C=Cc1ccc([N+](=O)[O-])cc1)N2Nc1ccccn1 (stereo unspecified) , state its recorded z-score.
Found: 0.412
